assay: Rat liver microsome stability assay; format: in vitro ADME; conditions: rat liver microsomes (male Sprague-Dawley), 0.5 μM test compound, 0.25 mg/mL microsomal protein, pH 7.4, 37° C.; read-out: Stability in rat liver microsomes (t1/2 in minutes)
Measurement type: half-life at 0.5 μM (min)

# Molecule smiles, Measurement type, Recorded number
data = [
    ("CCS(=O)(=O)c1ccc(Oc2ccc(C#N)cc2)c(-c2cn(C)c(=O)c3[nH]ccc23)c1", "half-life at 0.5 μM", 65),
    ("Cn1cc(-c2cc(S(C)(=O)=O)ccc2OC2CCC2)c2cc[nH]c2c1=O", "half-life at 0.5 μM", 38),
    ("Cn1cc(-c2cc(C(=O)Nc3ccc4cn[nH]c4c3)ccc2Oc2ccc(F)cc2F)c2cc[nH]c2c1=O", "half-life at 0.5 μM", 34),
    ("Cn1cc(-c2cc(NS(C)(=O)=O)ccc2Oc2ccccc2)c2cc[nH]c2c1=O", "half-life at 0.5 μM", 4),
    ("CNS(=O)(=O)c1ccc(OCC2CC2)c(-c2cn(C)c(=O)c3[nH]ccc23)c1", "half-life at 0.5 μM", 36),
]

[I] Cn1cc(-c2cc(C(=O)N3CCOCC3)ccc2Oc2ccc(F)cc2F)c2cc[nH]c2c1=O
[II] CCS(=O)(=O)c1ccc(OCC2CC2)c(-c2nn(C)c(=O)c3[nH]ccc23)c1
q: API: POST /compare with I and II ; response names the item with higher half-life at 0.5 μM. Field: selected label. Fill in the label of the entry you choose.
a: II
(II: 81 min, I: 30 min)

[1] Cn1cc(-c2cc(NC(=O)C(C)(C)C)ccc2Oc2ccc(F)cc2F)c2cc[nH]c2c1=O
[2] CN(C)CCNC(=O)c1ccc(Oc2ccc(F)cc2F)c(-c2cn(C)c(=O)c3[nH]ccc23)c1
[3] CCS(=O)(=O)Cc1ccc(Oc2ccc(F)cc2F)c(-c2cn(C)c(=O)c3[nH]ccc23)c1
[4] Cn1cc(-c2cc(C(=O)NCc3ccc(F)c(F)c3)ccc2Oc2ccc(F)cc2F)c2cc[nH]c2c1=O
[5] CCNC(=O)c1ccc(Oc2ccccc2)c(-c2cn(C)c(=O)c3[nH]ccc23)c1
q: Put these in order: smallest half-life at 0.5 μM first, largest last. Your reply should list the labels following the order given in the request.
a: 5, 1, 4, 3, 2
(5: 2 min, 1: 8 min, 4: 23 min, 3: 43 min, 2: 71 min)
